Hello, the source for this data is patent US20140235616A1, in case you need it.

molecular target: human MetAP2 (Homo sapiens, UniProt P50579); construct: made in house; host or cells: Sf9 insect cells (baculovirus); assay: MetAP2 enzymatic screening test (isolated enzyme, Met-Pro-Arg-pNa substrate, absorbance at 405 nm); assay type: biochemical; settings: read-out: % inhibition hMETAP2 at 100 nM
Sequence (P50579 whole entry): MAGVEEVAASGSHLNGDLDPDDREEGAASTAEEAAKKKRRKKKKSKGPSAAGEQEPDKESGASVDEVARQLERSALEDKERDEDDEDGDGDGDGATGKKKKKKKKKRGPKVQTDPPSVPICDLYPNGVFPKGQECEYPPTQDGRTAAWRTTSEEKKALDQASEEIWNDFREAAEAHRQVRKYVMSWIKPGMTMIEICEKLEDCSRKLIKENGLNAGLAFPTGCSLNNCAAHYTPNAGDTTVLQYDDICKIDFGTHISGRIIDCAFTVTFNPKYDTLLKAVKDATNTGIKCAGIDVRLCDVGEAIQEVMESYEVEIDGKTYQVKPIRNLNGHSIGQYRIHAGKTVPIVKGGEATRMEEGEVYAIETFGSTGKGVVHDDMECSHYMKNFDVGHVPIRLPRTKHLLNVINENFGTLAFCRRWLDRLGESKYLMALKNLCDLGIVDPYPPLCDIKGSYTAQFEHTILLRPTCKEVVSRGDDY
recorded_metric: inhibition at 0.1 µM (%)

| molecule | unit_string | inhibition at 0.1 µM |
| --- | --- | --- |
| COc1ccc(-c2ccc3c4[nH]ncc4c(=O)n(CC(F)(F)F)c3c2)cn1 | % | 41 |
| O=c1c2cn[nH]c2c2ccc(-c3ccnc(Cl)c3F)cc2n1CC(F)(F)F | % | 40 |
| O=c1c2cn[nH]c2c2ccc(-c3ccc(C(O)c4ccccc4)cn3)cc2n1CC(F)(F)F (stereo not drawn) | % | 41 |

----------
target: human MetAP2 (Homo sapiens); construct: made in house; host or cells: Sf9 insect cells (baculovirus); test: MetAP2 enzymatic screening test (isolated enzyme, Met-Pro-Arg-pNa substrate, absorbance at 405 nm); type: biochemical; conditions: read-out: % inhibition hMETAP2 at 100 nM
recorded_metric: inhibition at 0.1 µM (%)

| chemical_structure | tested_on | unit_string | measured_number |
| --- | --- | --- | --- |
| CCn1c(=O)c2cn[nH]c2c2ccc(-c3ccc(C(=O)N4CCN(C)CC4)cc3)cc21 | human MetAP2 (Homo sapiens) | % | 70 |
| COc1ccc(-c2ccc3c4[nH]ncc4c(=O)n(CC(F)(F)F)c3c2)c(CO)c1 | human MetAP2 (Homo sapiens) | % | 45 |
| CCn1c(=O)c2cn[nH]c2c2ccc(-c3ccc(N4CCN(C)CC4)cc3)cc21 | human MetAP2 (Homo sapiens) | % | 76 |
| O=c1c2cn[nH]c2c2ccc(-c3cccc(Cl)c3O)cc2n1CC(F)(F)F | human MetAP2 (Homo sapiens) | % | 43 |
| Cc1ccnc(-c2ccc3c4[nH]ncc4c(=O)n(CC(F)(F)F)c3c2)c1 | human MetAP2 (Homo sapiens) | % | 40 |

[A] COC(=O)c1ccc(-c2ccc3c4[nH]ncc4c(=O)n(CC(F)(F)F)c3c2)c(N)c1
[B] CCn1c(=O)c2cn[nH]c2c2ccc(-c3ccc(CNC(C)=O)cc3)cc21
Ask: When the recorded inhibition at 0.1 µM values are compared, which is smaller: that of A or that of B ? When you have decided, please share the label of that item.
Result: A
(A: 40%, B: 60%)

----------
target: human MetAP2 (Homo sapiens, UniProt P50579); construct: made in house; host or cells: Sf9 insect cells (baculovirus); assay: MetAP2 enzymatic screening test (isolated enzyme, Met-Pro-Arg-pNa substrate, absorbance at 405 nm); assay type: biochemical; conditions: read-out: % inhibition hMETAP2 at 100 nM
recorded_metric: inhibition at 0.1 µM (%)

| chemical_structure | tested_on | unit_string | inhibition at 0.1 µM |
| --- | --- | --- | --- |
| CCCc1ncncc1-c1ccc2c3[nH]ncc3c(=O)n(CC(F)(F)F)c2c1 | human MetAP2 (Homo sapiens, UniProt P50579) | % | 42 |
| O=c1c2cn[nH]c2c2ccc(-c3cccc(CO)n3)cc2n1CC(F)(F)F | human MetAP2 (Homo sapiens, UniProt P50579) | % | 41 |
| O=c1c2cn[nH]c2c2ccc(-c3ccccc3-c3cnco3)cc2n1CC(F)(F)F | human MetAP2 (Homo sapiens, UniProt P50579) | % | 42 |
